Cited source for all entries: paper PMC6760275

Tested on: Pluricyte hiPSC-CMs
Assay: hiPSC-CM calcium transient FLIPR assay
Conditions: 10 μM, 0.1% DMSO; any feature significant at any time point (5, 30, 90 min)
OUTCOME_MEASURE: detection as cardiotoxic in hiPSC-CMs (hiPSC-CM positive)

SMILES: O=C(O[C@@H]1C[C@@H]2C[C@H]3C[C@H](C1)N2CC3=O)c1c[nH]c2ccccc12
EXPERIMENTAL_VALUE: failed to detect
//
SMILES: CCN[C@@H](C)Cc1cccc(C(F)(F)F)c1
EXPERIMENTAL_VALUE: failed to detect

* * *

System: zebrafish larvae
Experiment: ZeCardio cardiotoxicity screen in zebrafish larvae (heart and blood flow imaging)
Conditions: in vivo
OUTCOME_MEASURE: detection as cardiotoxic in zebrafish (zebrafish positive)

MOLECULE: CC(C)(Sc1cc(C(C)(C)C)c(O)c(C(C)(C)C)c1)Sc1cc(C(C)(C)C)c(O)c(C(C)(C)C)c1
EXPERIMENTAL_VALUE: detection
//
MOLECULE: CC(C)NCC(O)c1cc(O)cc(O)c1 (centres unmarked)
EXPERIMENTAL_VALUE: could detect all
//
MOLECULE: Cc1ccc(-c2cc(C(F)(F)F)nn2-c2ccc(S(N)(=O)=O)cc2)cc1
EXPERIMENTAL_VALUE: could detect all
//
MOLECULE: COc1cc(N)c(Cl)cc1C(=O)NC1CCN(CCCOc2ccc(F)cc2)CC1OC (centres unmarked) [Cisapride]
EXPERIMENTAL_VALUE: could detect all
//
MOLECULE: CNCC(O)c1ccc(O)c(O)c1 (centres unmarked) [Racepinephrine]
EXPERIMENTAL_VALUE: detection
//
MOLECULE: CC(C)COCC(CN(Cc1ccccc1)c1ccccc1)N1CCCC1 (centres unmarked)
EXPERIMENTAL_VALUE: detection

Quick check: detection as cardiotoxic in zebrafish (zebrafish positive) of CN(CCOc1ccc(NS(C)(=O)=O)cc1)CCc1ccc(NS(C)(=O)=O)cc1 [Dofetilide] ?
detection

Consider next the molecule `O=C(O[C@@H]1C[C@@H]2C[C@H]3C[C@H](C1)N2CC3=O)c1c[nH]c2ccccc12` in the same way.
could detect all
